Would you mind telling me the reported Kd of each entry?
molecular target: T1, human GPC3 (human, UniProt P51654 25-563); assay: SPR
T1 construct: range 25-563; soluble analyte; also called soluble human GPC3; glypican 3
T1 sequence (P51654 25-563 limits assumed): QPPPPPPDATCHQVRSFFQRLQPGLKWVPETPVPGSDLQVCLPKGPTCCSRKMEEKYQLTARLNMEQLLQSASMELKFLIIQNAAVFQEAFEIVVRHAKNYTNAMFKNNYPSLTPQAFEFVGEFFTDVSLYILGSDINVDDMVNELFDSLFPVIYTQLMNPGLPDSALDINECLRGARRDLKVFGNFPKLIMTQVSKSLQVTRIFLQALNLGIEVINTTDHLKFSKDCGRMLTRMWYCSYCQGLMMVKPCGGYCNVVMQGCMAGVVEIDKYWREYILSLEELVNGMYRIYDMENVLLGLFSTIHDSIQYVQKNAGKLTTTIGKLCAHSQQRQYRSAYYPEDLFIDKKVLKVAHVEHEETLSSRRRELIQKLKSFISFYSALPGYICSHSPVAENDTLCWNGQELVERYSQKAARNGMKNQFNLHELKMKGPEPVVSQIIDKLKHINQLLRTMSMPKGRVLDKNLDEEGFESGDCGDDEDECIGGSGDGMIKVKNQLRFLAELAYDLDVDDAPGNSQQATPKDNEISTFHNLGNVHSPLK
Just the number please, in nM, no unit attached.

Query block: Endpoint output: Kd of H0610-G1dh/none-Hi-Kn010G3/TR01L005-k0 (antibody, V domains shown, one-arm) VH: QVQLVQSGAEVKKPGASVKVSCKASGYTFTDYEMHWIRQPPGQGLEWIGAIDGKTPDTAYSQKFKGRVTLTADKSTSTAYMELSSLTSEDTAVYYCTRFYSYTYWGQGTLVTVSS VL: DIVMTQSPLSLPVTPGEPASISCRSSQSLVHSNRNTYLHWYLQKPGQSPQLLIYKVSNRFSGVPDRFSGSGSGTDFTLKISRVEAEDVGVYYCGQGTQVPYTFGQGTKVEIE . Value?
Result block: 5.37

Query block: Endpoint output: Kd of H0610-G1dh/none-Hi-Kn010G3/L0217-k0 (antibody, V domains shown, one-arm) VH: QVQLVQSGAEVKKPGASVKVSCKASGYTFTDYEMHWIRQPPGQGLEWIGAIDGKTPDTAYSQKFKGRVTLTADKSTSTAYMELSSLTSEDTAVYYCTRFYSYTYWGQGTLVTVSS VL: DIVMTQSPLSLPVTPGEPASISCRPSQSLVHSNRNTYLHWYQQKPGQAPRLLIYKVSNRFRGVPDRFSGSGSGTDFTLKISRVEAEDVGVYYCGQGTQVPYTFGQGTKLEIK . Value?
Result block: 1.79

Query block: Endpoint output: Kd of GCH005-G1dh/none-Hi-Kn010G3/L0000-k0 (antibody, V domains shown, one-arm) VH: QVQLVQSGAEVKKPGASVKVSCKASGYTFTDYEMHWIRQPPGQGLEWIGAIDGKTPDTAESQKFKGRVTLTADKSTSTAYMELSSLTSEDTAVYYCTRFYSYTYWGQGTLVTVSS VL: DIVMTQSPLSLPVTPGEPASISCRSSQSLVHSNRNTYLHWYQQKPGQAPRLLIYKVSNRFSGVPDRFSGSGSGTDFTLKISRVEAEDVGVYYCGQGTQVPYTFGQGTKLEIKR . Value?
Result block: 5.32

Query block: Endpoint output: Kd of H0610-G1dh/none-Hi-Kn010G3/L0144-k0 (antibody, V domains shown, one-arm) VH: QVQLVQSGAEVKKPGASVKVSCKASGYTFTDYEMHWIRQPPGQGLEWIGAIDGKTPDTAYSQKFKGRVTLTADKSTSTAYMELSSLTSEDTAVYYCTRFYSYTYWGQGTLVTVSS VL: DIVMTQSPLSLPVTPGEPASISCRSSQSLVHSNRNTYLHWYQQKPGQAPRLLIYKVSNRFQGVPDRFSGSGSGTDFTLKISRVEAEDVGVYYCGQGTQVPYTFGQGTKLEIK . Value?
Result block: 4.84

Query block: Endpoint output: Kd of GCH022-G1dh/none-Hi-Kn010G3/L0000-k0 (antibody, V domains shown, one-arm) VH: QVQLVQSGAEVKKPGASVTVSCKASGYTFTDYEMHWIRQPPGQGLEWIGAIDGETPDTAYSQKFKGRVTLTADKSTSTAYMELSSLTSEDTAVYYCTRFYSYTYWGQGTLVTVSS VL: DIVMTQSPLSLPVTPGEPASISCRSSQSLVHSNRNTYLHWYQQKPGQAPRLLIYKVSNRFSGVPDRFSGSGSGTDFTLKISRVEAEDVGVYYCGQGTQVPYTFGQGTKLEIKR . Value?
Result block: 4.92
